- target-under-test: Paired box protein Pax-8 (Homo sapiens, UniProt Q06710)
- Sequence (Q06710 whole entry): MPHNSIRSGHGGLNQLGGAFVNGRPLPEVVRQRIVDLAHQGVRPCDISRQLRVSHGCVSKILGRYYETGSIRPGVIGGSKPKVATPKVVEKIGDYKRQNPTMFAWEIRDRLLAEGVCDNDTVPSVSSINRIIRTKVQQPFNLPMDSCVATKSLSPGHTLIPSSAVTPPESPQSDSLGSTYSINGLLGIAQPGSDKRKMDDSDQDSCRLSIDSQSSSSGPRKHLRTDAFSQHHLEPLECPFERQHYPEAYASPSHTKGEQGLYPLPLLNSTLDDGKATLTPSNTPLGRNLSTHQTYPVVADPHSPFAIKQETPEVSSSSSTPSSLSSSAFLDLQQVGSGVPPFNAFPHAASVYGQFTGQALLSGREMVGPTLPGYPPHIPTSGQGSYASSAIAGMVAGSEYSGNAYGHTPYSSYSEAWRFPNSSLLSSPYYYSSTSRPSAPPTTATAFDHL
- procedure-text: PAX8 transcriptional activity inhibition in RMG-I – RMG-I cells, luciferase, cherry-pick, dose response (AID 687027);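 also: luciferase reporter driven by Pax8 target thyroperoxidase promoter measured by SteadyGlo luminescence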
- Assay type: functional, cell-based
Active and inactive are the calls of the source.
parameter-measured: AC50

Prompt: Give AC50 (Paired box protein Pax-8 (Homo sapiens, UniProt Q06710)) of the following compound: O=C(C1CCC1)N1CCCCN2[C@H](CO)[C@H](c3ccc(-c4cccc(F)c4)cc3)[C@H]2C1
Completion: 19.1 µM (active)

Prompt: What about C[C@H]1CN([C@@H](C)CO)C(=O)c2ccccc2-c2ccccc2CO[C@H]1CN(C)S(=O)(=O)c1ccc(C(F)(F)F)cc1 ?
Completion: 9.62 µM (active)

Prompt: Check Cc1ccc(S(=O)(=O)Nc2ccc3c(c2)C(=O)N([C@@H](C)CO)C[C@H](C)[C@H](CN(C)Cc2ccc(C(F)(F)F)cc2)OCCCC[C@H](C)O3)cc1 too.
Completion: 6.16 µM (active)

Prompt: Lookup C[C@@H]1CCCCO[C@H](CN(C)Cc2ccc(Cl)c(Cl)c2)[C@H](C)CN([C@@H](C)CO)C(=O)c2cc(NS(=O)(=O)c3ccc(Cl)cc3)ccc2O1
Completion: 6.76 µM (active)

Prompt: Now consider CS(=O)(=O)Nc1ccc2c(c1)[C@@H]1C[C@@H](CC(=O)NCc3ccc(Oc4ccccc4)cc3)O[C@@H](CO)[C@@H]1O2 and answer again.
Completion: 1.95 µM (active)

Prompt: Moving on to CC1CC(C)(O)CC(C(O)CC2CC(=O)NC(=O)C2)C1=O (centres undefined) [RESACTIN A]
Completion: < 0.26 µM (active)

Prompt: Query COc1ccccc1C#Cc1ccc2c(c1)O[C@@H](CN(C)Cc1ccncc1)[C@H](C)CN([C@@H](C)CO)S2(=O)=O next
Completion: 2.84 µM (active)

Prompt: Follow-up item: OC(c1cc(-c2ccc(C(F)(F)F)cc2)nc(C(F)(F)F)c1)C1CCCCN1 (centres undefined) [ENPIROLINE]
Completion: 17.9 µM (active)

Prompt: Entry to check: CCCC#Cc1ccc2c(c1)O[C@H](CN(C)Cc1ccccc1)[C@@H](C)CN([C@H](C)CO)S2(=O)=O
Completion: 16.2 µM (active)

====

- target-under-test: Voltage-dependent T-type calcium channel subunit alpha-1H (Homo sapiens, UniProt O95180);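 also: channel activity triggered by adding a high calcium stimulation buffer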
- Sequence (O95180 whole entry): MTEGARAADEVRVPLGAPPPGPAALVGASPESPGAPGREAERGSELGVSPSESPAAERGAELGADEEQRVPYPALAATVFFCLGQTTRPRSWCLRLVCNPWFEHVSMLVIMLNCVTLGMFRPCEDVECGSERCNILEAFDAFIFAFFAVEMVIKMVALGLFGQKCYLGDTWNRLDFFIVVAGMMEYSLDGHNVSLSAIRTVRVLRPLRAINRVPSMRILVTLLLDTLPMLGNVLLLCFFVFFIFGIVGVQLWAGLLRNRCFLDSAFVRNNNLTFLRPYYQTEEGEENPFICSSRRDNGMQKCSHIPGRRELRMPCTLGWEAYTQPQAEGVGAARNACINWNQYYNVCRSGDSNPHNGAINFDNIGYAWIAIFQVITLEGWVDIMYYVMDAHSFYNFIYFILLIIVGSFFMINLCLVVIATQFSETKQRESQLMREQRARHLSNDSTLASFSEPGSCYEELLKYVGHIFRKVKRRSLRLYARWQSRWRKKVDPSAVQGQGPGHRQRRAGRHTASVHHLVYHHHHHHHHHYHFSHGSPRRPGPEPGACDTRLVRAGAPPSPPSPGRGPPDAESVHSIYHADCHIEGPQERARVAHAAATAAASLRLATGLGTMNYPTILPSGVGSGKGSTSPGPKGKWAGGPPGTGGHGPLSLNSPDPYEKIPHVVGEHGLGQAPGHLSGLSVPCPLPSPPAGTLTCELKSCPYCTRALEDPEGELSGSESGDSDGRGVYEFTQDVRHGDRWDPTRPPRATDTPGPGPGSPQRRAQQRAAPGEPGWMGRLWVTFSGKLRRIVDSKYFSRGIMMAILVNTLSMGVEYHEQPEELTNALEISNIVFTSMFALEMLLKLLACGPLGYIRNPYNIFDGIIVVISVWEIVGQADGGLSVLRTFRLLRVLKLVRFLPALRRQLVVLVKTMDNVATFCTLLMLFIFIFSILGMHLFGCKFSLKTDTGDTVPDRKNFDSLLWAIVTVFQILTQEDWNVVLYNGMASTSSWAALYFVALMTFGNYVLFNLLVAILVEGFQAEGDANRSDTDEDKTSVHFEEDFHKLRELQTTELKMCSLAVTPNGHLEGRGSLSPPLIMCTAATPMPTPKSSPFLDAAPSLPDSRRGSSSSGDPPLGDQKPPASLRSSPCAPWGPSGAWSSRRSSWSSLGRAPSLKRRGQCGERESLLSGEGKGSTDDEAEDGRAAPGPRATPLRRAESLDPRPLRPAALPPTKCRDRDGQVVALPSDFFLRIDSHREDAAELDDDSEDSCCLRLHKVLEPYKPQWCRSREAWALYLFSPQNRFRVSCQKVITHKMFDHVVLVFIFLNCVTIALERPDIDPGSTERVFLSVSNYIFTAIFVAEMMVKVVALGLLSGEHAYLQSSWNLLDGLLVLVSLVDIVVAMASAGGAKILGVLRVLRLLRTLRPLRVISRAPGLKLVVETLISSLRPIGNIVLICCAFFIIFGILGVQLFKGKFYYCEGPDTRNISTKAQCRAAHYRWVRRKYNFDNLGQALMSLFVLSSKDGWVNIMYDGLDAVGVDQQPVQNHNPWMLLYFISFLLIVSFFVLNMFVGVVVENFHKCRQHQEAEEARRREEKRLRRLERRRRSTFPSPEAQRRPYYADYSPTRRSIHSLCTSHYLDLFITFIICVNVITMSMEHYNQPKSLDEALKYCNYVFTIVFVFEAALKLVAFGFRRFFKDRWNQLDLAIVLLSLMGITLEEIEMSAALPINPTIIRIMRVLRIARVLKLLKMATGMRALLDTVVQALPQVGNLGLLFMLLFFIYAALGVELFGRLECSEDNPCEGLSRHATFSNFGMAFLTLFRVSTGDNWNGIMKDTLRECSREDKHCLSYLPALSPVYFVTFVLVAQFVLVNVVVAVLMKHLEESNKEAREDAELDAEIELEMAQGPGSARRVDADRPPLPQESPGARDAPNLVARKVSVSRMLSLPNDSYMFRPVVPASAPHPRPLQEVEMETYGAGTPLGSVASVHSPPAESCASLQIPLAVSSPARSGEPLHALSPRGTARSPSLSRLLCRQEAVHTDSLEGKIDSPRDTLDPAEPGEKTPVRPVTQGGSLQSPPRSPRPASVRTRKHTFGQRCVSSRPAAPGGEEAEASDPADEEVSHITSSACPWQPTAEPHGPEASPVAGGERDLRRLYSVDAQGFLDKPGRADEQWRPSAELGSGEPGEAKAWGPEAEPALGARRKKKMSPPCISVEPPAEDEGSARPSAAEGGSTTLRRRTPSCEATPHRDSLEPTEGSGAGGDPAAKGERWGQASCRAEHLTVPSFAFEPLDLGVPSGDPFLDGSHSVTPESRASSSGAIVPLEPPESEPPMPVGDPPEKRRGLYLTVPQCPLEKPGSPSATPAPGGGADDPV
- Type: functional
Calls of active or inactive are those of the source.
parameter-measured: EC50

Prompt: Given Cc1oc(-c2ccccc2)nc1Cn1cccc1C1=NC(c2ccccc2)CO1 (centres undefined) , state its recorded EC50.
Completion: 7.51 µM (active)

Prompt: How about this compound: O=C(Nc1ccc2c(c1)OCO2)C1CCN(Cc2cnn(-c3ccccc3)c2-n2cccc2)CC1
Completion: 5.88 µM (active)

Prompt: Try this compound too: CC1CCN(S(=O)(=O)c2ccc(NN=C(C#N)C#N)cc2)CC1
Completion: 1.52 µM (active)

Prompt: Same again, this time with Cc1ccc(Cl)cc1N1CCN(Cc2nnnn2Cc2ccco2)CC1
Completion: 0.633 µM (active)

====

Kindly state EC50 for each of the entries shown.
- target-under-test: Short transient receptor potential channel 4 (Mus musculus, UniProt Q9QUQ5)
- Sequence (Q9QUQ5 whole entry): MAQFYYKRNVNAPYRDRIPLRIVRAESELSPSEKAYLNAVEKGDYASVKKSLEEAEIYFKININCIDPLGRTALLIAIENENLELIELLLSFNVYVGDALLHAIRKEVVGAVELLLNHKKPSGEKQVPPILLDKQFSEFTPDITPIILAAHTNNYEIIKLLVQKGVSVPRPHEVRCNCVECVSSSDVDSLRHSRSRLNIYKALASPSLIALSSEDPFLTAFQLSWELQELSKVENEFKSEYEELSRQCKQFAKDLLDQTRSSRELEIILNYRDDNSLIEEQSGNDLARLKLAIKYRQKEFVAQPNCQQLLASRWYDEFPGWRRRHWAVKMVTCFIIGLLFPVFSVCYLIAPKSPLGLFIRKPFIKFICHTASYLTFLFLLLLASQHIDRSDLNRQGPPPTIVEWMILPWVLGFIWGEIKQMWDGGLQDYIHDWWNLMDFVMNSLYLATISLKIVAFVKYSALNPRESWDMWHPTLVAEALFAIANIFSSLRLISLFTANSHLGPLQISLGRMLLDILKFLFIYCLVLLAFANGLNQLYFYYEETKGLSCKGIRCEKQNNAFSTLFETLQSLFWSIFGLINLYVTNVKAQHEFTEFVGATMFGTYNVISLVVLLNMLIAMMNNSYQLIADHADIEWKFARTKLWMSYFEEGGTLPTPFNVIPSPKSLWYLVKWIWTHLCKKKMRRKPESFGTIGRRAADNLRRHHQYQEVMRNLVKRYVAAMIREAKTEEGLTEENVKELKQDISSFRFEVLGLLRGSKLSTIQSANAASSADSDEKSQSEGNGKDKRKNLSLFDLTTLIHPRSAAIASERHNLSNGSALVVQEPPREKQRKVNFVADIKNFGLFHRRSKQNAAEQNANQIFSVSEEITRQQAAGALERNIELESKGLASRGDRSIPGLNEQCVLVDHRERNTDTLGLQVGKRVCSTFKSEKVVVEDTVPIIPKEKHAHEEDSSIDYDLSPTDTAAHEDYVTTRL
- procedure-text: block of DAMGO-driven TRPC4 calcium entry – cell-based, HEK293 TRPC4/mu-opioid, Fluo-4 calcium, dose response (AID 434942);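 also: potency of inhibitors blocking the TRPC4 calcium response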
- Type: functional
Active and inactive are the calls of the source.

Prompt: Requested field: EC50. Item: COc1cc(OC)c(C2N(C)c3ccccc3N2C)cc1OC
Completion: 1330 nM (active)

Prompt: Can you handle COCCn1c(SCc2cccc([N+](=O)[O-])c2)nc2ccccc2c1=O next?
Completion: 1680 nM (active)

Prompt: Queued: O=C(Nc1ccc(F)cc1)N1CCN2C(=O)c3ccccc3C12c1ccccc1 (stereo not drawn)
Completion: 1680 nM (active)

====

- target-under-test: Protein RecA (Mycobacterium tuberculosis, UniProt P9WHJ3)
- procedure-text: Fluorescence Cell-Free Homogeneous Dose Retest to Identify Inhibitors of RecA-Intein Splicing Activity. [Related pubchem assays (depositor defined):AID2097, AID2223, AID489010, AID492950]
- Type: functional
Active and inactive are the calls of the source.
Record form. Attribute: EC50. Fill in for each entry.

Prompt: Test system Protein RecA (Mycobacterium tuberculosis, UniProt P9WHJ3); read-out EC50; what value for O=C(CCl)N1N=C(c2cccs2)CC1c1ccco1 (stereo unspecified) ?
Completion: 4.21 µM (active)

Prompt: Would you kindly repeat that for COC(=O)C(C#N)C(c1cccnc1)c1c(C)n[nH]c1O (stereo unspecified) ?
Completion: 1.2 µM (active)

Prompt: Please answer likewise for COc1cc(/C=C(\C#N)c2nc3ccccc3o2)ccc1O
Completion: 2.41 µM (active)

Prompt: One more molecule: O=C(CCl)N1CCCC1c1ccc2c(c1)OCCO2 (stereo unspecified)
Completion: > 380 µM (inconclusive)

Prompt: Likewise for CC1=NN(Cc2ccccc2)C(=O)C1C(c1ccc(Cl)cc1)C(C#N)C#N (stereo unspecified) ?
Completion: 2.5 µM (active)

Prompt: Same thing, different molecule: CCOC(=O)c1nnc(-c2ccccc2)nc1Sc1c(Cl)cccc1Cl
Completion: > 380 µM (inconclusive)

Prompt: Now the molecule Nc1nc(CCl)nc(Nc2ccc3ccccc3c2)n1
Completion: 19.4 µM (active)

Prompt: Now consider N#Cc1c(Cl)c(Cl)c2nnc(-c3ccc(Br)cc3)n2c1Cl .
Completion: 9.3 µM (active)

Prompt: c1ccc(C2[C@H]3CN(Cc4cccnc4)[C@H](c4ccccc4)C34CC2(c2cccnc2)C4)cc1 (stereo partly specified) , same question.
Completion: 16.7 µM (active)

Prompt: Repeat with O=C(CSc1ncnc2c1nnn2Cc1ccccc1F)N1CCN(c2ccccc2)CC1
Completion: 5.75 µM (active)

Prompt: Now try Oc1cc(O)c2c(c1)O[C@H](c1ccc(O)c(O)c1)[C@@H](O)C2 .
Completion: 4.11 µM (active)

====

- procedure-text: reduction of Shn3 3'UTR-driven luciferase in osteoblasts – cell-based, Clone20 osteoblasts, firefly luciferase, cherry-picked, dose response (AID 624132);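 also: firefly luciferase luminescence from reporter carrying the Shn3 3'UTR in osteoblasts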
- Format: functional
The source made the active and inactive calls.
So I've got a bunch of molecules here, and I need their AC50 values.

Prompt: AC50 lookup needed for COc1ccc(C(=O)NC2CCCc3c2cnn3-c2cccc(C)c2C)c(OC)n1 (configuration not stated) , thanks.
Completion: 1960 nM (active)

Prompt: What do you get for C[C@H](NC(=O)c1[nH]cnc1C(=O)NCc1ccc(CNC(=O)OC(C)(C)C)cc1)c1ccccc1 ?
Completion: 11700 nM (active)

Prompt: # iterate: CC(C)=CCC/C(C)=C/CNC(=O)C[C@H]1C[C@H](C(=O)N2CCOCC2)[C@@]2(C)c3[nH]c4cc(CCC(=O)N(C)C)ccc4c3CCN2C1=O
Completion: 1110 nM (active)

Prompt: Do the same for COc1ccc(COc2ccccc2C(=O)NCc2ccccc2)cc1F please
Completion: 4760 nM (active)

Prompt: Follow-up entry: COc1ccc(-n2nnnc2S(=O)(=O)CC(=O)N2CCCCC2)cc1
Completion: 5440 nM (active)

Prompt: And what about the molecule Fc1ccc2[nH]c3c(N4CCc5ccccc5C4)ncnc3c2c1 ?
Completion: 466 nM (active)

Prompt: Same question, CC1CC(C)(O)CC(C(O)CC2CC(=O)NC(=O)C2)C1=O (configuration not stated) this time
Completion: 339 nM (active)

====

- target-under-test: Cytochrome P450 2C9 (Homo sapiens)
- Sequence (P11712 whole entry): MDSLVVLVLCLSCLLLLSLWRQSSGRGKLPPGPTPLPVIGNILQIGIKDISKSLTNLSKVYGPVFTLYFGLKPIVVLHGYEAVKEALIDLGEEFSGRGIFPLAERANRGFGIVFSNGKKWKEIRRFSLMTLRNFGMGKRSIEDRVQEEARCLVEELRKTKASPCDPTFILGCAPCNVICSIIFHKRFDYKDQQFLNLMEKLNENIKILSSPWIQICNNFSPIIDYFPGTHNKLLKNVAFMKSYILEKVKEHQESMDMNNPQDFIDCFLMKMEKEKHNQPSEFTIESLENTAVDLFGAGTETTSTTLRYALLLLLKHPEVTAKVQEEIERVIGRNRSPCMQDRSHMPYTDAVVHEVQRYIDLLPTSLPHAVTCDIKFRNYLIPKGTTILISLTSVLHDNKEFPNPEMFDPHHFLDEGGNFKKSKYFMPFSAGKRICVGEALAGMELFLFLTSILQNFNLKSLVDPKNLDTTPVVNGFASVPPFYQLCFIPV
parameter-measured: AC50

Prompt: Give the measured AC50 of COc1cccc(-c2ccc3ncnc(Nc4ccccc4)c3c2)c1 .
Completion: 0.631 µM (inconclusive)

Prompt: COCc1nnc(NC(=O)CCN2C(=O)c3ccccc3C2=O)s1 ?
Completion: 31.6 µM (inconclusive)

Prompt: Could you do the same for O=C(Nc1cccc(-c2nc3ncccc3o2)c1)c1sc2ccccc2c1Cl , please?
Completion: 2 µM (inconclusive)

Prompt: Record: O=c1ccc2[nH]cc(C3=CCNCC3)c2[nH]1
Completion: 7.94 µM (inconclusive)

Prompt: Quick one: N#CC(C#N)=Cc1cc(O)c(O)c(O)c1
Completion: 15.8 µM (inconclusive)

Prompt: Okay, and O=c1c(O)c(-c2ccc(O)cc2)oc2cc(O)cc(O)c12 ?
Completion: 0.00126 µM (inconclusive)

====

- procedure-text: non-specific 3'UTR reporter inhibition in Clone20-Shn3RL – cell-based, Renilla luciferase, cherry-picked, counter-screen for Shn3 inhibitor project, dose response (AID 624133)
- Assay type: functional
Calls of active or inactive are those of the source.
parameter-measured: AC50

Prompt: Consider the compound shown here: C=C1C(=O)C23C(O)C1CCC2C12COC3(O)C(O)C1C(C)(C)CCC2O (centres undefined) What is its recorded AC50?
Completion: 8.14 µM (active)

Prompt: Next compound up: COc1ccc(C(=O)NC2CCCc3c2cnn3-c2cccc(C)c2C)c(OC)n1 (centres undefined)
Completion: 3.27 µM (active)

Prompt: # repeat for O=C(N[C@@H]1C/C=C\C[C@@H](CC(=O)N(CCO)Cc2ccccc2)C(=O)NC[C@H](c2ccccc2)OC1=O)OCC1c2ccccc2-c2ccccc21
Completion: 4.32 µM (active)

Prompt: Proceed to CC(C)=CCC/C(C)=C/CNC(=O)C[C@H]1C[C@H](C(=O)N2CCOCC2)[C@@]2(C)c3[nH]c4cc(CCC(=O)N(C)C)ccc4c3CCN2C1=O
Completion: 1.33 µM (active)

Origin of the recorded values: ChEMBL document CHEMBL1201862
